target-desc: Fyn (UniProt P06241)
Sequence (P06241 whole entry, looked up): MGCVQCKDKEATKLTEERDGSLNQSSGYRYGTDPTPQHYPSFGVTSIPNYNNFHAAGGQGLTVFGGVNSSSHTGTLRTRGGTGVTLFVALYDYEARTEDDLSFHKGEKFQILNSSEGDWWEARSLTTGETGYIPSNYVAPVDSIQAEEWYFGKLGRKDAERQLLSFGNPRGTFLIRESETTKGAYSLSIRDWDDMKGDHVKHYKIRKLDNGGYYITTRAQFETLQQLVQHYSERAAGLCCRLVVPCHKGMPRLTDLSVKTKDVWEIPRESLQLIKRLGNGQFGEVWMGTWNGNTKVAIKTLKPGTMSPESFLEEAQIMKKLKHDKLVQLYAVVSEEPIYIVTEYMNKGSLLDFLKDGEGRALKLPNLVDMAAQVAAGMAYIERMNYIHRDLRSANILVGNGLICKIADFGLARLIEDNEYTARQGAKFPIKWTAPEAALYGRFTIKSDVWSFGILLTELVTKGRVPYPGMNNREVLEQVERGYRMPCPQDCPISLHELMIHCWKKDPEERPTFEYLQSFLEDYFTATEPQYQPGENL
measurement-protocol: phosphorylation enrichment, bacterial display (enrichment ratio); higher = better substrate or ligand; peptides without Tyr show the background;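 also: 11-residue human phosphosite peptides and single-mutation variants displayed on the E. coli surface, counted by deep sequencing, each peptide's frequency after selection divided by its frequency in the unselected input library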;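 also: frequency after pTyr selection over input frequency; kinase dosed for 20-30% of maximal phosphorylation in three min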
# phosphorylation enrichment listing for each entry below
The reply should be a number, written without any unit.

{"columns": ["entry-sequence", "phosphorylation enrichment"],
 "data": [
  ["KMGNIYRTEFG [MRPL3_Y265_YF]", 0.536],
  ["SRLDSYVRSLP [TRAPPC1_Y133]", 0.373],
  ["VVPGSYDRLRV [IFT172_Y260_L257P]", 0.359],
  ["HNMPIYEGFAL [ACTA1_Y168_V165M_YF]", 21.5],
  ["INITIYGKTFC [EFHC1_Y177_R182C]", 0.532]
]}

Next, consider the following sequence.
Task: Provide phosphorylation enrichment value for the following sequence: QELRRYLKSGV [MICA_Y194]
Output: 0.553
